Test: Toxicity liver stage against HepG2, at 10uM
Type: cell-based
Parameters: test concentration 10 uM, cell line HepG2-A16-CD81EGFP
Conditions: human, HepG2-A16-CD81EGFP cells; read-out: INHIBITION
readout: cytotoxicity at 10 µM (%)
Lab book: enter the figure in %, no units written.

Below: 2 compounds and their reported cytotoxicity at 10 µM.
compound	unit tag	assay result
Cn1cc(CN2CCCCC2c2ccc(-c3cccc(F)c3)nc2)cn1 (centres undefined)	%	6.77
COCCN1CCCc2sc(C(=O)Nc3ccc(C)nc3)nc21	%	5.92

// query Quote cytotoxicity at 10 µM reported for Cn1c(CN2CCCC(N3CCNC3=O)C2)cc(=O)n(C)c1=O (centres undefined) please.
// result -5.6

// query Quote cytotoxicity at 10 µM reported for Cc1cc(C)cc(CNC(c2ccccc2)c2nccn2C)c1 (centres undefined) please.
// result -13

// query Quote cytotoxicity at 10 µM reported for `COCc1nc(-c2ccc(S(=O)(=O)N3CCCC3)cc2)cs1` please.
// result -49.8

// query Quote cytotoxicity at 10 µM reported for CSCC(=O)NC1CCN(C(C)c2ccccc2)CC1 (centres undefined) please.
// result 3.63

// query Quote cytotoxicity at 10 µM reported for `Fc1ccc(Cc2cccc(C3CCN(C4CCOCC4)CC3)n2)cc1` please.
// result 4.3

// query Quote cytotoxicity at 10 µM reported for `Cc1cc(C)cc(OCC(=O)N2CCC2)c1` please.
// result 2.01

// query Quote cytotoxicity at 10 µM reported for `Cc1ccc(C(=O)N(Cc2ccc(F)cc2F)C2CC2)c(=O)[nH]1` please.
// result -2.01

// query Quote cytotoxicity at 10 µM reported for CC(C)N1CCOC(CC(=O)N2CCCN(c3ccc(F)cc3)CC2)C1 (centres undefined) please.
// result -4.66

// query Quote cytotoxicity at 10 µM reported for `CN(C)c1ccc(CNCc2cnc(N3CCOCC3)nc2)cn1` please.
// result 9.44

// query Quote cytotoxicity at 10 µM reported for `O[C@@H]1CN(CC2CC2)CC[C@H]1N1CCN(c2ccccc2F)CC1` please.
// result -50.3

// query Quote cytotoxicity at 10 µM reported for `COc1ccnc(N(C)Cc2ccccc2OC(F)(F)F)n1` please.
// result 6.15
